# procedure-summary: Pharmacokinetics of methotrexate after intravenous administration with and without febuxostat in rats
# Assay type: in vivo, rat
# conditions-used: male, Wistar, rat, plasma, iv, 2 mg/kg, methotrexate 2 mg/kg i.v., febuxostat (+) 1 mg/kg i.v., mean ± S.D., n = 4
property-label: Vd (L/kg)
Give a bare numeral; the unit L/kg is implied.

Please look up its Vd: CN(Cc1cnc2nc(N)nc(N)c2n1)c1ccc(C(=O)N[C@@H](CCC(=O)O)C(=O)O)cc1 [methotrexate]
0.433

---

# procedure-summary: Pharmacokinetics of methotrexate after intravenous administration with and without febuxostat in rats
# Assay type: in vivo, rat
# conditions-used: male, Wistar, rat, plasma, iv, 2 mg/kg, methotrexate 2 mg/kg i.v., febuxostat (−), mean ± S.D., n = 4
property-label: half-life (min)
Give a bare numeral; the unit min is implied.

Please look up its half-life: CN(Cc1cnc2nc(N)nc(N)c2n1)c1ccc(C(=O)N[C@@H](CCC(=O)O)C(=O)O)cc1 [methotrexate]
6.4
